Source: patent US4328242A

Assay: Isothermic (accelerated) stability according to the method of Garret, TLC
Format: physicochemical
Run Parameters: Solution (500 mg in 10 cc water), 70°, 240 hours; read-out: Chromatographic Impurities
Readout Label: degraded at 240 h
The answer consists of two parts: a number and, after it, its unit.

Given COc1cc(C(=O)SC(C)C(=O)NCC(=O)O)cc(OC)c1OC (centres unmarked) , state its recorded degraded at 240 h. 1.1%

# degraded at 240 h lookup, item CC(S)C(=O)NCC(=O)O (centres unmarked) 2%

----------
Assay: Acute toxicity in mice
Format: in vivo
Run Parameters: mouse, in vivo, ip, 10 days observation, probits, 95% limits (2192-2963), read-out: DL50 mg/kg (Confidential Limits)
Readout Label: LD50 at 240 h (mg/kg)
Quick reminder: number only, in mg/kg, skip the unit.

Look at this compound and give its reported LD50 at 240 h. COc1cc(C(=O)SC(C)C(=O)NCC(=O)O)cc(OC)c1OC (stereo not shown) 2530

----------
Assay: Acute toxicity in mice
Format: in vivo
Run Parameters: mouse, in vivo, po, orally, 3000 mg/kg, read-out: % Death
Readout Label: mortality at 240 h (%)
Entry rule: numbers only, all in %.

Which mortality at 240 h value is on record for COc1cc(C(=O)SC(C)C(=O)NCC(=O)O)cc(OC)c1OC (stereo not shown) [TBPG] ? 5

----------
Assay: Acute toxicity in rats
Type: in vivo
Run Parameters: rat, in vivo, po, orally, 7000 mg/kg, read-out: % Death
Readout Label: mortality at 240 h
I'd appreciate it if you included the unit after the number.

What value of mortality at 240 h has been recorded for this entry: COc1cc(C(=O)SC(C)C(=O)NCC(=O)O)cc(OC)c1OC (stereo not shown) 85%

----------
Assay: Acute toxicity in rats
Type: in vivo
Run Parameters: rat, in vivo, ip, 2000 mg/kg, read-out: % Death
Readout Label: mortality at 240 h (%)
Please state the figure in %; there is no need to write the unit.

Consider the molecule shown here: COc1cc(C(=O)SC(C)C(=O)NCC(=O)O)cc(OC)c1OC (stereo not shown) What is its recorded mortality at 240 h? 30

----------
Assay: Isothermic (accelerated) stability according to the method of Garret, TLC
Assay type: physicochemical
Run Parameters: Powder, 60°, 960 hours; read-out: Chromatographic Impurities
Readout Label: degraded at 960 h (%)
Write the value in % as a bare number.

May I ask what degraded at 960 h has been recorded for CC(S)C(=O)NCC(=O)O (stereo not drawn) [α-mercaptopropionylglycine, 2-mercaptopropionylglycine] ? 1

----------
Assay: Isothermic (accelerated) stability according to the method of Garret, TLC
Format: physicochemical
Run Parameters: Powder, 70°, 240 hours; read-out: Chromatographic Impurities
Readout Label: degraded at 240 h (%)
Response body: numeric value in %, unit text excluded.

GET /values?readout=degraded at 240 h&item= CC(S)C(=O)NCC(=O)O (stereo not shown) 1

----------
Assay: Acute toxicity in rats
Assay type: in vivo
Run Parameters: rat, in vivo, ip, 3500 mg/kg, read-out: % Death
Readout Label: mortality at 240 h (%)
Please state the figure in %; there is no need to write the unit.

Entry COc1cc(C(=O)SC(C)C(=O)NCC(=O)O)cc(OC)c1OC (stereo not shown) has what mortality at 240 h? 85

----------
Assay: Isothermic (accelerated) stability according to the method of Garret, TLC
Type: physicochemical
Run Parameters: Solution (500 mg in 10 cc water), 60°, 960 hours; read-out: Chromatographic Impurities
Would you kindly list degraded at 960 h for each of these compounds?
Please respond with the number in % and leave the unit unwritten.

Which degraded at 960 h is listed for COc1cc(C(=O)SC(C)C(=O)NCC(=O)O)cc(OC)c1OC (centres unmarked) ? 0.7

Returns the measured degraded at 960 h for the input compound. Input: CC(S)C(=O)NCC(=O)O (centres unmarked) 1

----------
Assay: Acute toxicity in mice
Type: in vivo
Run Parameters: mouse, in vivo, po, orally, 7000 mg/kg, read-out: % Death
Readout Label: mortality at 240 h (%)
Field: numeric (%). Do not append units.

Report mortality at 240 h for COc1cc(C(=O)SC(C)C(=O)NCC(=O)O)cc(OC)c1OC (stereo not shown) [TBPG] please. 90

----------
Assay: Acute toxicity in mice
Assay type: in vivo
Run Parameters: mouse, in vivo, po, orally, 6000 mg/kg, read-out: % Death
Readout Label: mortality at 240 h (%)
Give the value in % but do not write % after it.

Look at this compound and give its reported mortality at 240 h. COc1cc(C(=O)SC(C)C(=O)NCC(=O)O)cc(OC)c1OC (stereo not shown) 75
